The values you see were collected from paper PMC8397297.

The following compounds are shown together with reported remaining [3H]GABA uptake mGAT4 values.
Molecular target: mGAT4 (Mus musculus, UniProt P31650)
Construct: expressed in transfected cells; host or cells: HEK-293
Sequence (P31650 1-627): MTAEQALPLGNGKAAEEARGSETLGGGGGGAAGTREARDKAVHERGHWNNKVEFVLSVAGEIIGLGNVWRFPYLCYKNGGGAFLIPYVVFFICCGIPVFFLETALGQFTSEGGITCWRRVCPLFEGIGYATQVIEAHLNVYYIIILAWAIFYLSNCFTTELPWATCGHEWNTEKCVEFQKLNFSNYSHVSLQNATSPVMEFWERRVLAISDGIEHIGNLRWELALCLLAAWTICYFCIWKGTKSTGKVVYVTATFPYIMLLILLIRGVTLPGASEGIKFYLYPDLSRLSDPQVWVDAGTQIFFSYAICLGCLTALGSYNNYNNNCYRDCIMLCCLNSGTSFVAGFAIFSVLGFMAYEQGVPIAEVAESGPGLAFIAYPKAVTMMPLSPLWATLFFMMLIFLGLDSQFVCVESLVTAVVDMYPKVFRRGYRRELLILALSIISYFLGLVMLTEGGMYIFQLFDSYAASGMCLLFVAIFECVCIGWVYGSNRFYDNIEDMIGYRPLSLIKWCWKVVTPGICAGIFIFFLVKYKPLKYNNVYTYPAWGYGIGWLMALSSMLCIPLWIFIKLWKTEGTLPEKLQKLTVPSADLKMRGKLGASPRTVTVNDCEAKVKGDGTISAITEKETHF
Assay: [3H]GABA uptake assay in HEK-293 cells stably expressing mGAT4
Format: cell-based
Settings: in the presence of 100 μM inhibitor
metric name: remaining [3H]GABA uptake mGAT4

[[record]]
compound = "CC(O)CC(C(=O)NCc1ccc(F)cc1)N1CCC(=C2c3ccccc3CCc3ccccc32)CC1 (stereo not shown) [2RS,4SR-43b]"
metric_name = "remaining [3H]GABA uptake mGAT4"
result = "100 μM: 62%"

[[record]]
compound = "Cc1ccsc1C(=C1CCN(C(CC(C)O)C(=O)NCc2ccccc2Cl)CC1)c1sccc1C (stereo not shown) [2RS,4SR-37b]"
metric_name = "remaining [3H]GABA uptake mGAT4"
result = "100 μM: 56%"

[[record]]
compound = "C[C@@H](C(=O)OCc1ccccc1)N(C)CCC=C1c2ccccc2C=Cc2ccccc21 [Compound 72]"
metric_name = "remaining [3H]GABA uptake mGAT4"
result = "100 μM: 97%"

[[record]]
compound = "C[C@@H](C(=O)O)N(C)CCC=C1c2ccccc2C=Cc2ccccc21 [Compound 74]"
metric_name = "remaining [3H]GABA uptake mGAT4"
result = "100 μM: 77%"


###

Listed compounds paired with reported remaining [3H]GABA uptake mGAT4
Target: mGAT4 (Mus musculus)
Construct: expressed in transfected cells; host or cells: HEK-293
Test: [3H]GABA uptake assay in HEK-293 cells stably expressing mGAT4
Assay type: cell-based
Details: in the presence of 100 μM inhibitor
metric name: remaining [3H]GABA uptake mGAT4

[[record]]
compound = "CCC(C(=O)NCc1ccccc1Cl)N1CCC(=C(c2sccc2C)c2sccc2C)CC1 (centres unmarked) [Compound 64b]"
metric_name = "remaining [3H]GABA uptake mGAT4"
result = "100 μM: 64%"

[[record]]
compound = "CC(O)CC(C(=O)NCc1ccccc1)N1CCC(=C2c3ccccc3-c3ccccc32)CC1 (centres unmarked) [2RS,4RS-41a]"
metric_name = "remaining [3H]GABA uptake mGAT4"
result = "52%"

[[record]]
compound = "Cc1ccsc1C(=CCCN(C)C(C)C(=O)O)c1sccc1C (centres unmarked)"
metric_name = "remaining [3H]GABA uptake mGAT4"
result = "100 μM: 60%"

[[record]]
compound = "CCC(C(=O)NCc1ccccc1Cl)N(C)CCON=C(c1ccccc1)c1ccccc1 (centres unmarked) [Compound 66b]"
metric_name = "remaining [3H]GABA uptake mGAT4"
result = "100 μM: 50%"

[[record]]
compound = "CCC(C(=O)NCc1ccccc1)N1CCC(=C(c2sccc2C)c2sccc2C)CC1 (centres unmarked) [Compound 64a]"
metric_name = "remaining [3H]GABA uptake mGAT4"
result = "100 μM: 77%"

